# assay notes: CCTE_Shafer_MEA_dev_per_burst_interspike_interval: CCTE's Neural Network Formation Assay for Burst Interspike Interval, Shafer Lab (AID 2284044);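 further: mean spike spacing inside bursts as AUC over recordings on days 5 7 9 12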
Active and inactive are the calls of the source. How the source made its calls: active means hit-call score of the fitted dose curve at least 0.9, where 1 is the maximum; inactive means score below 0.9.
Outcome (select one): active, inactive

Recorded results for 5 molecules are shown here.
# molecule, cat
records = [
    ("O=C(O)CNCP(=O)(O)O", "inactive"),
    ("Brc1ccc(Oc2cc(Br)c(Br)cc2Br)c(Br)c1", "inactive"),
    ("CCOP(=O)(OCC)SCSC(C)(C)C", "inactive"),
    ("[Cd+2].[Cl-].[Cl-]", "active"),
    ("CC(=O)[O-].CC(=O)[O-].O.O.O.[Pb+2]", "inactive"),
]

Ask | Outcome logged for CP(=O)(O)CC[C@H](N)C(=O)O in this assay:
Reply | inactive

Ask | In this assay, the call recorded for C[n+]1ccc(-c2ccccc2)cc1 was what?
Reply | inactive

Ask | For this molecule, state the assay outcome: CC1CCCC1.[C-]#[O+].[C-]#[O+].[C-]#[O+].[Mn]
Reply | inactive

Ask | Hi team, can someone confirm the assay call for COC(=O)[C@H]1[C@@H](OC(=O)c2ccccc2)C[C@@H]2CC[C@H]1N2C ?
Reply | inactive

----------
# measurement target: human Phosphatase and Tensin Homolog (PTEN), PTEN (gene 5728) (UniProt P60484)
# Sequence (P60484 whole entry, looked up): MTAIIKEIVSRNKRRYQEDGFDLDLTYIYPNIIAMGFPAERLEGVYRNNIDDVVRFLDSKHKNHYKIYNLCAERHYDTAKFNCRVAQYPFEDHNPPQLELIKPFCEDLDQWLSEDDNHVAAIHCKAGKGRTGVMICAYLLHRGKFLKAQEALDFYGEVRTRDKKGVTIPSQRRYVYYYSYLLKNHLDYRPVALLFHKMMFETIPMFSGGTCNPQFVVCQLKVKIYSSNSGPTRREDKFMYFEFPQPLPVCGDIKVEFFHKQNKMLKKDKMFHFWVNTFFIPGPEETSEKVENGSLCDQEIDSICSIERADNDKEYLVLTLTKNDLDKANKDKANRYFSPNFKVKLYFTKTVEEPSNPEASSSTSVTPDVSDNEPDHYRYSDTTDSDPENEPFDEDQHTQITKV
# assay notes: NVS_ENZ_hPTEN: NovaScreen (NVS) Enzymatic Assay for human Phosphatase and Tensin Homolog (PTEN) (AID 2283203)
Records with an inconclusive call do not appear. Activity calls are given as the source filed them. How the source made its calls: active means hit-call score of the fitted dose curve at least 0.9, where 1 is the maximum; inconclusive means response in the unintended direction; inactive means score below 0.9.

# smiles notation, AC50
measured = [
    ("CC(C)(O)c1coc(S(=O)(=O)NC(=O)Nc2c3c(cc4c2CCC4)CCC3)c1", "inactive"),
    ("Cc1cccc2c1ccc1ccccc12", "13.8 µM (active)"),
    ("CC/C=C\\C#N", "inactive"),
    ("FC(F)(F)C(F)(F)C(F)(F)C(F)(F)C(F)(F)C(F)(F)CCI", "inactive"),
]

----------
# measurement target: Cellular tumor antigen p53 (Homo sapiens)
# assay notes: TOX21_p53_BLA_p5_ratio: Tox21 HCT-116 p53 Agonism Beta-lactamase Assay, Ratio, Phase 5 (AID 2283599)
# Description: TOX21_p53_BLA_p5 is a cell-based, single-readout assay that uses HCT116, a human intestinal cell line, […] in a 1536-well plate.TOX21_p53_BLA_p5_ratio is an assay readout measuring reporter gene via receptor activity and designed using inducible reporter (beta lactamase induction) detected with GAL4 b-lactamase reporter gene. […] This assay endpoint, TOX21_p53_BLA_p5_ratio, was analyzed in the positive analysis fitting direction relative to DMSO as the negative control and baseline of activity. […]
Inconclusive results are not listed. Calls of active or inactive are those of the source. The calls were made as follows: active = hit-call score of the fitted dose curve at least 0.9, where 1 is the maximum; inconclusive = response in the unintended direction; inactive = score below 0.9.
Pick one and only one: active, inactive

Answered examples (2):
# compound, cat
rows = [
    ("CCOC(=O)COc1ccc(Cl)cc1Cl", "inactive"),
    ("O=C=NC1CCCCC1", "inactive"),
]

Ask | Kindly provide the recorded test outcome for the following compound: CN1c2ccccc2C(NCCCCCCC(=O)O)c2ccc(Cl)cc2S1(=O)=O (configuration not stated)
Reply | inactive

Ask | For COC(=O)C(c1ccccc1)C1CCCCN1 (configuration not stated) , what call appears in the results of this test?
Reply | inactive

Ask | Which outcome was entered for the compound O=C(Nc1ccccc1)N(Cc1ccc(Cl)cc1)C1CCCC1 in this test?
Reply | inactive

Ask | GET /call?item= CC(=O)CCC(C)=O returns the recorded outcome of this test.
Reply | inactive

Ask | Just curious, what result did NC(=S)C(N)=S get here?
Reply | inactive

Ask | Recorded test outcome, item CC(O)CN1CCN(CC(=O)[O-])CCN(CC(=O)[O-])CCN(CC(=O)[O-])CC1.[Gd+3] (configuration not stated)
Reply | inactive

Ask | # fetch the recorded call for CC(N)Cc1ccc2c(c1)OCO2 (configuration not stated) here
Reply | inactive

Ask | Which result was noted for this compound in the test: Oc1c(Cl)c(Cl)cc(Cl)c1Cl
Reply | active

Ask | Record request — test call for Cc1cccc2sc3nncn3c12
Reply | inactive

Ask | Returns: the outcome recorded for CN1CCN=C(c2ccccc2)c2cc(Cl)ccc21 in this assay.
Reply | active

Ask | Write down the call the test reported for this compound. Item: C[C@@H]([C@H](O)c1ccccc1)N(C)C
Reply | inactive

Ask | Write down the call the test reported for this compound. Item: CC(C)(O)C#N
Reply | inactive

Ask | Each compound tested received a call. Report the one for C[C@]12Cc3nonc3C[C@@H]1CC[C@@H]1[C@@H]2CC[C@@]2(C)[C@H]1CC[C@]2(C)O .
Reply | inactive

Ask | Name the outcome recorded for CCNC1(c2cccs2)CCCCC1=O (configuration not stated) in the assay.
Reply | inactive
